# measured_on: human androgen receptor (AR) (Homo sapiens)
# Construct: expressed in transfected cells; host or cells: mouse myoblast C2C12 cells, transiently co-transfected with FuGENE
# Sequence (P10275 whole entry): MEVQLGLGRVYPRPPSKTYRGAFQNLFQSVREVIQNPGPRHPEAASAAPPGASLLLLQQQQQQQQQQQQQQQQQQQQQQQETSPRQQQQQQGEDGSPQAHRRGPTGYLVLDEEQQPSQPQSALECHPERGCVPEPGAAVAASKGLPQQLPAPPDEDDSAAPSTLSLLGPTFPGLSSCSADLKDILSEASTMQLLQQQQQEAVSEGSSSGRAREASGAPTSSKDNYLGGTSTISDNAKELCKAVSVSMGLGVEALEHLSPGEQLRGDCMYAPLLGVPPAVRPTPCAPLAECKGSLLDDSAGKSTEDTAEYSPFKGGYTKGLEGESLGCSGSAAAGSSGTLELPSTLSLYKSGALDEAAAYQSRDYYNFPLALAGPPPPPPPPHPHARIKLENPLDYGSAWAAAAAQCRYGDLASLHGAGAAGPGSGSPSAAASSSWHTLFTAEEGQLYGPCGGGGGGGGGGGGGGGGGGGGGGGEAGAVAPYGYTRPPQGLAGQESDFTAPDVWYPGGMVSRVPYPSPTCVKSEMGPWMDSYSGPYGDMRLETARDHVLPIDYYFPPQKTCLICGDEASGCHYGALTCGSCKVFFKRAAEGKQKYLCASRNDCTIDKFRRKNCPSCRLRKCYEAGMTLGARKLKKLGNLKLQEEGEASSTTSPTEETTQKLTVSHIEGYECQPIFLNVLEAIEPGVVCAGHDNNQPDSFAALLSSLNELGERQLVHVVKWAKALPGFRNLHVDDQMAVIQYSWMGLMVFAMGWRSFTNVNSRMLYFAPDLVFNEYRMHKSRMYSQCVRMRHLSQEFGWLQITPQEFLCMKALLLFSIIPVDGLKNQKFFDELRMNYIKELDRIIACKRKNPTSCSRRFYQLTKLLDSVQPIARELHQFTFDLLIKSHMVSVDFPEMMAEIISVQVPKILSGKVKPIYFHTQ
# protocol_notes: C2C12 AR/ARE reporter assay
# Assay type: cell-based
# experimental_conditions: C2C12 EC50(nM), mouse myoblast C2C12 cells, luciferase reporter, 48 h; average
Exercise: state measured EC50 for each of the compounds provided.
# number only, unit nM dropped from output

Lookup: Can you share its EC50? I mean this compound: Cc1c(N2CCCC2c2cccc(S(C)(=O)=O)c2)ccc(C#N)c1Cl (stereo not shown)
Found: 103

Lookup: Can you share its EC50? I mean this compound: Cc1c(N2CCCC2c2ccc3c(c2)OCO3)ccc(C#N)c1Cl (stereo not shown)
Found: 12.4

Lookup: Can you share its EC50? I mean this compound: Cc1nnc(C2CCCN2c2ccc(C#N)c(Cl)c2C)[nH]1 (stereo not shown)
Found: 378

Lookup: Can you share its EC50? I mean this compound: CCC1CCC(c2ccccc2)N1c1ccc(C#N)c(Cl)c1 (single isomer, unassigned) [Example 22b]
Found: 25

Lookup: Can you share its EC50? I mean this compound: Cc1nnc(C2CCCN2c2ccc(C#N)c(Cl)c2C)s1 (stereo not shown)
Found: 24.4

Lookup: Can you share its EC50? I mean this compound: Cc1c(N2CCCC2c2ccccc2)ccc(C#N)c1Cl (stereo not shown)
Found: 1.2

Lookup: Can you share its EC50? I mean this compound: CCC1CCC(c2ccccc2)N1c1ccc(C#N)c(Cl)c1 (single isomer, unassigned) [Example 22a]
Found: 32.4

Lookup: Can you share its EC50? I mean this compound: Cc1c(N2CCCC2c2ccncc2)ccc(C#N)c1Cl (stereo not shown)
Found: 6.8

Lookup: Can you share its EC50? I mean this compound: CCC1CCC(c2ccccc2)N1c1ccc(C#N)c(Cl)c1C (mixture of isomers)
Found: 131

Lookup: Can you share its EC50? I mean this compound: COc1ccc(C2CCCN2c2ccc(C#N)c(Cl)c2C)cc1 (stereo not shown)
Found: 28.3

Lookup: Can you share its EC50? I mean this compound: Cc1c(N2CCCC2c2cncnc2)ccc(C#N)c1Cl (stereo not shown)
Found: 0.4

Lookup: Can you share its EC50? I mean this compound: Cc1c(N2CCCC2c2ccccn2)ccc(C#N)c1Cl (stereo not shown)
Found: 40.8

Lookup: Can you share its EC50? I mean this compound: CCC1CCC(c2ccccc2)N1c1ccc(C#N)c(Cl)c1 (single isomer, unassigned) [Example 22d]
Found: 6.1

Lookup: Can you share its EC50? I mean this compound: CSc1ccc(C2CCCN2c2ccc(C#N)c(Cl)c2C)cc1 (stereo not shown)
Found: 21.2

Lookup: Can you share its EC50? I mean this compound: COc1cccc(C2(C)CCCN2c2ccc(C#N)c(Cl)c2)c1 (stereo not shown)
Found: 9.8

Lookup: Can you share its EC50? I mean this compound: Cc1noc(C2CCCN2c2ccc(C#N)c(Cl)c2C)n1 (stereo not shown)
Found: 0.5

Lookup: Can you share its EC50? I mean this compound: Cc1c(N2CCCC2c2cccnc2)ccc(C#N)c1Cl (stereo not shown)
Found: 2.6

Lookup: Can you share its EC50? I mean this compound: CSc1cccc(C2CCCN2c2ccc(C#N)c(Cl)c2C)c1 (stereo not shown)
Found: 9.7

Lookup: Can you share its EC50? I mean this compound: N#Cc1ccc(N2CCCC2c2cccnc2)cc1Cl (stereo not shown)
Found: 109
